Measured values drawn from patent US7169786B2 for this set.

# Target or test system: h5-HT transporter (Homo sapiens)
# Construct: Human platelet membranes (Oceanix Biosciences Corporation, Hanover, Md., USA) were thawed; tissue Oceanix Biosciences Corporation, Hanover, Md., USA; host or cells: human platelet membranes
# Sequence (P31645 whole entry): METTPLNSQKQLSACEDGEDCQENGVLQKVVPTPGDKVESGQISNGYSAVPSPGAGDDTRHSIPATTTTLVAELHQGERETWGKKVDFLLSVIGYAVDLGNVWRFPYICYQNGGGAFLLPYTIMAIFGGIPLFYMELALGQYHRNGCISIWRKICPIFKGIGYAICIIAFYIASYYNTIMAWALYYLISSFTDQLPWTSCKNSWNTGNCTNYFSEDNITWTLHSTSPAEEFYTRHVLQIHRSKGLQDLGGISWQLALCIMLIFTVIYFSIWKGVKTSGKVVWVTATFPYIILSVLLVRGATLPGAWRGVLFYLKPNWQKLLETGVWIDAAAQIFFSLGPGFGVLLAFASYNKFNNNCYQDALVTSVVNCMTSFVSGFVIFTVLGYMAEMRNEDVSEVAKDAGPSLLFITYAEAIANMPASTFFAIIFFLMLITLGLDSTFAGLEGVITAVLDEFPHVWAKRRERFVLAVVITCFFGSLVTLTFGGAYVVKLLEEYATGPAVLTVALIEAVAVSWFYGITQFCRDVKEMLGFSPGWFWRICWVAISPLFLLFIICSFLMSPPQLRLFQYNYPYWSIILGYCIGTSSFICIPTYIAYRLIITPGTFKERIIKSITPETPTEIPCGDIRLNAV
# Method: Radioligand binding experiment for 5-HT transporter ([3H]paroxetine, human platelet membranes)
# Cond: human platelet membranes; [3H]paroxetine 0.5 nM; read-out: 5HTT pIC50 (converted)
Listed here: items and their measured log10 of IC50.
// stored as log10 of IC50 expressed in nM

compound="COc1cc2c(cc1OC)C1=NOC(CN3CCN(CC(C)Nc4ccccc4)CC3)C1CO2 (centres unmarked) [Compound 26]" val=2.83
compound="COc1cc2c(cc1O)OCC1C2=NOC1CN1CCN(C/C(C)=C/c2ccccc2)CC1 (centres unmarked) [Compound 3]" val=1.21
compound="COc1ccc2c(c1)OCC1C2=NOC1CCN1CCN(Cc2ccc3ccccc3c2)CC1 (centres unmarked) [Compound 280]" val=0.91
compound="COc1cc2c(cc1OC)C1=NOC(CN3CCN(CCOc4ccc(F)cc4)CC3)C1CO2 (centres unmarked) [Compound 48]" val=2.10

COc1cc2c(cc1OC)C1=NOC(CN3CCN(Cc4cccc(C#N)c4)CC3)C1CO2 (centres unmarked) [Compound 97] has a reported log10 of IC50 of 2.55

CSc1cc2c(cc1F)C1=NOC(CN3CCN(CC(C)=Cc4ccccc4)CC3)C1CO2 (centres unmarked) [Compound 244] has a reported log10 of IC50 of 2.10

COc1cc2c(cc1OC)C1=NOC(CN3CCN(CCC(O)c4ccccc4)CC3)C1CO2 (centres unmarked) [Compound 310] has a reported log10 of IC50 of 2.94

COc1cc2c(cc1OCCOC(C)=O)C1=NOC(CN3CCN(CC(C)=Cc4ccccc4)CC3)C1CO2 (centres unmarked) [Compound 332] has a reported log10 of IC50 of 1.77

c1ccc2cc(CN3CCN(CC4ON=C5c6ccc(OC7CCOC7)cc6OCC54)CC3)ccc2c1 (centres unmarked) [Compound 271] has a reported log10 of IC50 of 0.47

COc1cc2c(cc1OC)C1=NOC(CN3CCN(C/C=C/c4ccc(F)cc4F)CC3)C1CO2 (single isomer, unassigned) [Compound 185] has a reported log10 of IC50 of 1.10

COc1ccc2c(c1)OCC1C2=NOC1CN1CCN(CC=Cc2ccccc2)CC1 (centres unmarked) [Compound 217] has a reported log10 of IC50 of 1.73

====

# Target or test system: h5-HT transporter (Homo sapiens)
# Construct: Human platelet membranes (Oceanix Biosciences Corporation, Hanover, Md., USA) were thawed; tissue Oceanix Biosciences Corporation, Hanover, Md., USA; host or cells: human platelet membranes
# Method: Radioligand binding experiment for 5-HT transporter ([3H]paroxetine, human platelet membranes)
# Cond: human platelet membranes; [3H]paroxetine 0.5 nM
Measured property: 5HTT pIC50
Lab note: write the figure by itself, no unit.

molecule="CCOC(=O)N1CC2C(=NOC2CN2CCN(CC=Cc3ccccc3)CC2)c2ccccc21 (centres unmarked)" val=8.08

COc1cc2c(cc1OC)C1=NOC(CN(C=O)C3CCN(Cc4ccc5ccccc5c4)CC3)C1CO2 (racemic) has a reported 5HTT pIC50 of 8.06

C=CC(=O)Oc1ccc2c(c1)OCC1C2=NOC1CN1CCN(CC(C)=Cc2ccccc2)CC1 (centres unmarked) has a reported 5HTT pIC50 of 6.89

C=CCOc1cc2c(cc1OC)C1=NOC(CN3CCN(CC(C)=Cc4ccccc4)CC3)C1CO2 (single isomer, unassigned) has a reported 5HTT pIC50 of 8.00

COc1cc2c(cc1OC)C1=NOC(CN3CCN(CC=Cc4cccc(F)c4)CC3)C1CN2 (centres unmarked) has a reported 5HTT pIC50 of 8.06

====

# Target or test system: hα2B receptor (Homo sapiens, UniProt P18089)
# Construct: expressed in transfected cells
# Sequence (P18089 whole entry): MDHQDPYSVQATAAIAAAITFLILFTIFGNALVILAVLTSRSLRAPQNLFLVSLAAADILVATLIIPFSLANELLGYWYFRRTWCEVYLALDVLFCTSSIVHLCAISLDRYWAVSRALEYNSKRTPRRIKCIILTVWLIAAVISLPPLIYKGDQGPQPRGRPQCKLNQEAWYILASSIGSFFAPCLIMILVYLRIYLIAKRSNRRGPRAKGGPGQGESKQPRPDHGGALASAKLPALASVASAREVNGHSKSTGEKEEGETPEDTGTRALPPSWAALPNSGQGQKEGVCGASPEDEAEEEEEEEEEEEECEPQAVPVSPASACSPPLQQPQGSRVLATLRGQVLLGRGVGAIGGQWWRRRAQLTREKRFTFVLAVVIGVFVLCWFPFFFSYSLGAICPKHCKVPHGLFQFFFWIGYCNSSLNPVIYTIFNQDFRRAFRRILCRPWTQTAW
# Method: Radioligand binding experiment for hα2B receptor ([3H]-raulwolscine)
# Cond: membranes of CHO cells expressing human α2B receptor; [3H]raulwolscine 1 nM
Measured property: hα2B pIC50
Lab note: write the figure by itself, no unit.

compound="C(=Cc1ccccc1)CN1CCN(CC2ON=C3c4cc5c(cc4OCC32)OCC5)CC1 (racemic)" target_or_test_system="hα2B receptor (Homo sapiens, UniProt P18089)" val=8.03

CC(=Cc1ccccc1)CN1CCN(CC2ON=C3c4ccc(OC5CCCC5)cc4OCC32)CC1 (stereo not shown) has a reported hα2B pIC50 of 7.77

CC(=O)Oc1ccc2c(c1)OCC1C2=NOC1CN1CCN(CC=Cc2ccccc2)CC1 (stereo not shown) has a reported hα2B pIC50 of 8.20

COc1cc2c(cc1Cl)C1=NOC(CN3CCN(CC(C)=Cc4ccccc4)CC3)C1CO2 (stereo not shown) has a reported hα2B pIC50 of 7.90

====

# Target or test system: hα2C receptor (Homo sapiens, UniProt P18825)
# Construct: expressed in transfected cells
# Sequence (P18825 whole entry): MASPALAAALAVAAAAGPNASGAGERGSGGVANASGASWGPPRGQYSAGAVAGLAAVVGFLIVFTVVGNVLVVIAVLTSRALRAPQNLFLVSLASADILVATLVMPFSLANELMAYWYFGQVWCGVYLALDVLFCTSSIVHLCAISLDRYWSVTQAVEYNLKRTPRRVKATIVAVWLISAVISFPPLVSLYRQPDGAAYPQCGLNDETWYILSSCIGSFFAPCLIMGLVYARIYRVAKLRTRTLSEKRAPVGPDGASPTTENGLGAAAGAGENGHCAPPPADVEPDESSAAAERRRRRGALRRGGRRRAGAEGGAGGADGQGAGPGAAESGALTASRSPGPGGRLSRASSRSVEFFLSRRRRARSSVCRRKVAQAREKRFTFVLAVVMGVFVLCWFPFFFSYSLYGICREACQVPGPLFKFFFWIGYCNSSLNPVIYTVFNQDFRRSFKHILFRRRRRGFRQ
# Method: Radioligand binding experiment for hα2C receptor ([3H]-raulwolscine)
# Cond: membranes of CHO cells expressing human α2C receptor; [3H]raulwolscine 1 nM; read-out: hα2C pIC50 (converted)
API: label(entry) gives T if the entry's IC50 is strictly smaller than 30 nM; on equality or larger values it gives F.

molecule="COc1cc2c(cc1OC)C1=NOC(CN3CCN(C/C=C(\\C)c4ccccc4F)CC3)C1CO2 (single isomer, unassigned)" group_label=T

[Q] Is 30 nM strictly greater than the molecule's reported IC50? molecule: COc1cc2c(cc1OC)C1=NOC(CN3CCN(CCCc4ccccc4)CC3)C1CO2 (stereo not drawn)
[A] T

[Q] Is 30 nM strictly greater than the molecule's reported IC50? molecule: COc1ccccc1C=CCN1CCN(CC2ON=C3c4cc(OC)c(OC)cc4OCC32)CC1 (stereo not drawn)
[A] T

[Q] Is 30 nM strictly greater than the molecule's reported IC50? molecule: COc1cc2c(cc1OC)C1=NOC(CN3CCN(C/C=C/C=C/c4ccccc4)CC3)C1CO2 (single isomer, unassigned)
[A] T

[Q] Is 30 nM strictly greater than the molecule's reported IC50? molecule: COc1ccc2c(c1)OCC1C2=NOC1CCN1CCN(Cc2ccc3ccccc3c2)CC1 (stereo not drawn)
[A] F

[Q] Is 30 nM strictly greater than the molecule's reported IC50? molecule: COc1cc2c(cc1OC)C1=NOC(CN3CCN(CC(C)=Cc4cccc(F)c4)CC3)C1CO2 (stereo not drawn)
[A] T

====

# Target or test system: hα2C receptor (Homo sapiens, UniProt P18825)
# Construct: expressed in transfected cells
# Method: Radioligand binding experiment for hα2C receptor ([3H]-raulwolscine)
# Cond: membranes of CHO cells expressing human α2C receptor; [3H]raulwolscine 1 nM; read-out: hα2C pIC50 (converted)
# Method: The interaction of the compounds of Formula (I) with hα2-receptors and h5-HT-transporters was assessed in in vitro radioligand binding experiments. […] When equilibrium of binding is reached, the receptor bound radioactivity is separated from the non-bound radioactivity, and the receptor- or transporter-bound activity is counted. The interaction of the test compounds with the receptor is assessed in competition binding experiments. […]
API: label(entry) gives true (1) if the entry's IC50 is strictly smaller than 0.007 µM; on equality or larger values it gives false (0).

molecule="COc1cc2c(cc1OC)C1=NOC(CN3CCN(Cc4cccc(C#N)c4)CC3)C1CO2 (stereo not drawn)" group_label="false (0)"

[Q] Is 0.007 µM strictly greater than the molecule's reported IC50? molecule: COc1cc2c(cc1OC)C1=NOC(CN3CCN(C(C)/C=C/c4ccccc4)CC3)C1CO2 (single isomer, unassigned)
[A] false (0)

[Q] Is 0.007 µM strictly greater than the molecule's reported IC50? molecule: COc1cc2c(cc1OC)C1=NOC(CN3CCN(CCC(=O)c4ccccc4)CC3)C1CO2 (stereo not drawn)
[A] false (0)

[Q] Is 0.007 µM strictly greater than the molecule's reported IC50? molecule: COc1cc2c(cc1OC)C1=NOC(CN3CCN(CC(C)=Cc4cc(F)ccc4F)CC3)C1CO2 (stereo not drawn)
[A] true (1)

[Q] Is 0.007 µM strictly greater than the molecule's reported IC50? molecule: COc1cc2c(cc1OC)C1=NOC(CN3CCN(C/C=C(\C)c4ccc(F)cc4)CC3)C1CO2 (single isomer, unassigned)
[A] true (1)
